src = ChEMBL document CHEMBL6120942

Method Summary: Half life in male Beagle dog at 1 mg/kg, iv measured upto 24 hrs by LC-MS/MS analysis
Assay type: ADME, organism-based, Canis lupus familiaris
Protocol Conditions: in vivo
Recorded Metric: half-life (h)
A number alone suffices; assume h.

Cc1cc(C)n(-c2cccc([C@H](CC(=O)O)CN3CC[C@@H](CCc4ccc5c(n4)NCCC5)C3)c2)n1.Cl 3.6

Now look at this one.
// half-life value for `O=C(O)C[C@H](CN1CC[C@@](F)(CCc2ccc3c(n2)NCCC3)C1)c1cccc(N2CCOCC2)c1` : 6.1

* * *

Method Summary: Half life in male Wistar Han rat at 1 mg/kg, iv measured upto 24 hrs by LC-MS/MS analysis
Type: ADME, organism-based
Protocol Conditions: in vivo
Parameter half-life: see the listing below.
Expressed in min, but write only the number.

Compound	half-life, min
O=C(O)C[C@H](CN1CC[C@@](F)(CCc2ccc3c(n2)NCCC3)C1)c1cccc(O[C@H]2CCOC2)c1	168

Here is another compound to look at.
Recorded result, `O=C(O)C[C@H](CN1CC[C@@](F)(CCc2ccc3c(n2)NCCC3)C1)c1cccc(O[C@@H]2CCOC2)c1` , half-life: 186

* * *

Method Summary: Metabolic stability in human Hepatocyte assessed as clearance measured upto 60 mins by LC-MS/MS analysis
Format: ADME, cell-based
Protocol Conditions: hepatocytes, 1 h
Examples of molecules with documented CLH follow.

Example molecules with recorded CLH:
O=C(O)C[C@H](CN1CC[C@@](F)(CCc2ccc3c(n2)NCCC3)C1)c1cccc(O[C@@H]2CCOC2)c1 < 0.21 mL/min/g
O=C(O)C[C@H](CN1CC[C@@](F)(CCc2ccc3c(n2)NCCC3)C1)c1cccc(OC2CCOCC2)c1 < 0.21 mL/min/g
Cc1cc(C)n(-c2cccc([C@H](CC(=O)O)CN3CC[C@@](F)(CCc4ccc5c(n4)NCCC5)C3)c2)n1 < 0.86 mL/min/g

Item: `O=C(O)C[C@H](CN1CC[C@@](F)(CCc2ccc3c(n2)NCCC3)C1)c1cccc(N2CCOCC2)c1` | CLH: < 0.62 mL/min/g

* * *

Method Summary: in vitro
Protocol Conditions: dog, MDCK-MDR1, permeability
Description: Permeability across apical to basolateral side in dog MDCK-MDR1 cells measured for 60 mins by LC-MS/MS analysis
Recorded Metric: Papp A→B at 1 h (×10⁻⁶ cm/s)
Numbers only here, please. The scale is ×10⁻⁶ cm/s.

Worked cases, answers included:
Compound	Papp A→B at 1 h (×10⁻⁶ cm/s)
O=C(O)C[C@H](CN1CC[C@@H](CCc2ccc3c(n2)NCCC3)C1)c1cccc(N2CCOCC2)c1	2.7
COCCOc1cccc([C@H](CC(=O)O)CN2CC[C@@](F)(CCc3ccc4c(n3)NCCC4)C2)c1	14.6
Cc1cc(C)n(-c2cccc([C@H](CC(=O)O)CN3CC[C@@](F)(CCc4ccc5c(n4)NCCC5)C3)c2)n1	33

`O=C(O)C[C@H](CN1CC[C@@](F)(CCc2ccc3c(n2)NCCC3)C1)c1cccc(O[C@@H]2CCOC2)c1` yielded Papp A→B at 1 h of 20.5

For reference, reported Papp A→B at 1 h for `O=C(O)C[C@H](CN1CC[C@@](F)(CCc2ccc3c(n2)NCCC3)C1)c1cccc(OC2CCOCC2)c1` stands at 17.2

Looking up `O=C(O)C[C@H](CN1CC[C@](F)(CCc2ccc3c(n2)NCCC3)C1)c1cccc(N2CCOCC2)c1` , I found its Papp A→B at 1 h recorded as 9.3

# compound O=C(O)C[C@H](CN1CCCC(F)(CCc2ccc3c(n2)NCCC3)C1)c1cccc(N2CCOCC2)c1 (stereo in doubt; 4a) ; its Papp A→B at 1 h = 21.6

* * *

Method Summary: Half life in Gottingen minipig at 1 mg/kg, iv measured upto 24 hrs by LC-MS/MS analysis
Type: ADME, organism-based, Sus scrofa
Protocol Conditions: pig, in vivo
Recorded Metric: half-life (h)
Field format: number, assumed h, no unit text.

Past entries and their recorded results:
O=C(O)C[C@H](CN1CC[C@@](F)(CCc2ccc3c(n2)NCCC3)C1)c1cccc(N2CCOCC2)c1 3
O=C(O)C[C@H](CN1CC[C@@](F)(CCc2ccc3c(n2)NCCC3)C1)c1cccc(O[C@H]2CCOC2)c1 3.4

Here is another compound to look at.
`O=C(O)C[C@H](CN1CC[C@@](F)(CCc2ccc3c(n2)NCCC3)C1)c1cccc(O[C@@H]2CCOC2)c1` yielded half-life of 1.7

* * *

Method Summary: Oral bioavailability in male Wistar Han rat at 2 mg/kg measured upto 24 hrs by LC-MS/MS analysis
Format: ADME, organism-based
Protocol Conditions: in vivo
Recorded Metric: bioavailability (%)
The answer is to be given in %; state only the numeric part.

# bioavailability (compound: `COCCOc1cccc([C@H](CC(=O)O)CN2CC[C@@](F)(CCc3ccc4c(n3)NCCC4)C2)c1` ) is 93

* * *

Method Summary: Oral bioavailability in male Wistar Han rat at 1 mg/kg measured upto 24 hrs by LC-MS/MS analysis
Assay type: ADME, organism-based
Protocol Conditions: in vivo
Recorded Metric: bioavailability (%)
Response body: numeric value in %, unit text excluded.

Answered examples (3):
Structure String	Unit Name	bioavailability
O=C(O)C[C@H](CN1CC[C@@](F)(CCc2ccc3c(n2)NCCC3)C1)c1cccc(O[C@@H]2CCOC2)c1	%	90
O=C(O)C[C@H](CN1CC[C@@](F)(CCc2ccc3c(n2)NCCC3)C1)c1cccc(OC2CCOCC2)c1	%	50
O=C(O)C[C@H](CN1CC[C@@](F)(CCc2ccc3c(n2)NCCC3)C1)c1cccc(O[C@H]2CCOC2)c1	%	61

Lookup result for `O=C(O)C[C@H](CN1CC[C@@](F)(CCc2ccc3c(n2)NCCC3)C1)c1cccc(N2CCOCC2)c1` ; measured bioavailability: 77

* * *

bioavailability by entry:
Method Summary: Oral bioavailability in male Beagle dog at 1 mg/kg measured upto 24 hrs by LC-MS/MS analysis
Type: ADME, organism-based, Canis lupus familiaris
Protocol Conditions: in vivo
Write down the numeric answer in % and omit the unit.

Compound	Unit Name	bioavailability
Cc1cc(C)n(-c2cccc([C@H](CC(=O)O)CN3CC[C@@H](CCc4ccc5c(n4)NCCC5)C3)c2)n1.Cl [GSK-3008348]	%	30

Record summary for `O=C(O)C[C@H](CN1CC[C@@](F)(CCc2ccc3c(n2)NCCC3)C1)c1cccc(N2CCOCC2)c1` : reported bioavailability = 74

Consider `COCCOc1cccc([C@H](CC(=O)O)CN2CC[C@@](F)(CCc3ccc4c(n3)NCCC4)C2)c1` . Its measured bioavailability is 104

* * *

Method Summary: Volume of distribution at steady state in male Wistar Han rat at 1 mg/kg, po or 1 mg/kg, iv measured upto 24 hrs by LC-MS/MS analysis
Type: ADME, organism-based
Protocol Conditions: in vivo
Below, each entry is listed with its recorded Vdss.

O=C(O)C[C@H](CN1CC[C@@](F)(CCc2ccc3c(n2)NCCC3)C1)c1cccc(N2CCOCC2)c1 4.1 L/kg
O=C(O)C[C@H](CN1CC[C@@](F)(CCc2ccc3c(n2)NCCC3)C1)c1cccc(OC2CCOCC2)c1 4.9 L/kg
O=C(O)C[C@H](CN1CC[C@@](F)(CCc2ccc3c(n2)NCCC3)C1)c1cccc(O[C@H]2CCOC2)c1 1.9 L/kg
Cc1cc(C)n(-c2cccc([C@H](CC(=O)O)CN3CC[C@@H](CCc4ccc5c(n4)NCCC5)C3)c2)n1.Cl 2.1 L/kg

Measured Vdss of `O=C(O)C[C@H](CN1CC[C@@](F)(CCc2ccc3c(n2)NCCC3)C1)c1cccc(O[C@@H]2CCOC2)c1` : 3.3 L/kg

* * *

Below, each entry is listed with its recorded Papp A→B at 1 h.
Method Summary: in vitro
Protocol Conditions: dog, MDCK-MDR1, permeability

Compound	Papp A→B at 1 h
O=C(O)C[C@H](CN1CC(CCc2ccc3c(n2)NCCC3)CC(F)(F)C1)c1cccc(N2CCOCC2)c1 (stereo in doubt; 3a)	36 ×10⁻⁶ cm/s
O=C(O)C[C@H](CN1CC[C@@](F)(CCc2ccc3c(n2)NCCC3)C1)c1cccc(N2CCOCC2)c1	21.8 ×10⁻⁶ cm/s
O=C(O)C[C@H](CN1CCC(F)(F)C(CCc2ccc3c(n2)NCCC3)C1)c1cccc(N2CCOCC2)c1 (stereo in doubt; 2a)	37 ×10⁻⁶ cm/s

Reported Papp A→B at 1 h ( `O=C(O)C[C@H](CN1CC[C@@](F)(CCc2ccc3c(n2)NCCC3)C1)c1cccc(O[C@H]2CCOC2)c1` ) = 26 ×10⁻⁶ cm/s

* * *

Method Summary: AUC in rat at 2 mg/kg, po
Assay type: ADME, organism-based
Protocol Conditions: in vivo
Below, each entry is listed with its recorded AUC.
Please state the figure in ng·h/mL; there is no need to write the unit.

COCCOc1cccc([C@H](CC(=O)O)CN2CC[C@@](F)(CCc3ccc4c(n3)NCCC4)C2)c1 779

Next:
The recorded AUC for entry `COCCOc1cccc([C@H](CC(=O)O)CN2CC[C@](F)(CCc3ccc4c(n3)NCCC4)C2)c1` equals 101
